# MEASUREMENT TARGET: Glucocorticoid receptor (Homo sapiens)
# EXPERIMENT SUMMARY: GR-GFP Redistribution (AID 450); further: potency means the concentration at half of the fitted maximal effect
# CONDITIONS: U2OS GR-GFP nuclear translocation, laser cytometry, 2 h
# Method: NIH Molecular Libraries Screening Centers Network [MLSCN] NIH Chemical Genomics Center [NCGC] […] GR-GFP U2OS cells were maintained in DMEM with Glutamax and high glucose, 1% v/v penicillin-streptomycin, and 0.5 mg/mL Geneticin. […] The plates were read by the Acumen Explorer using a 1 x 8 um scan of the whole well area. PI fluorescence triggered the collection of PI and GFP signals. […]
Calls of active or inactive are those of the source.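 How the source made its calls: active means compounds whose dose series gives a full or clear partial fitted curve of increased nuclear translocation; inconclusive means weak partial curve or effect only at the top dose; inactive means no dose-dependent translocation response.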
MEASURED ATTRIBUTE: Potency

Take a look at these entries with their results.
# MOLECULE, Potency
rows = [
    ("O=C1NC(=O)C(C/C=C/c2ccccc2)C(=O)N1", "> 20.6 µM (inactive)"),
    ("CN(C)[C@H]1C(=O)C(C(N)=O)=C(O)[C@]2(O)C(=O)C3=C(O)c4c(O)cccc4[C@@](C)(O)[C@H]3C[C@@H]12", "> 20.6 µM (inactive)"),
    ("C[C@H]1CCCC=CC2C[C@H](O)C[C@@H]2[C@H](O)/C=C\\C(=O)O1 (stereo partly specified)", "> 46 µM (inactive)"),
    ("C[C@H]1C(=O)O[C@H]2CCN3CC=C(COC(=O)[C@](C)(O)[C@@]1(C)O)[C@H]23", "> 46 µM (inactive)"),
    ("Cc1c(N=Cc2c(O)n(Cc3ccco3)c(=O)[nH]c2=O)c(=O)n(-c2ccccc2)n1C", "> 20.6 µM (inactive)"),
    ("COc1cc2c(cc1O)CCN[C@H]2C", "> 46 µM (inactive)"),
]

input: Endpoint output: Potency of CC(C)C[C@H]1C(=O)N2CCC[C@@H]2[C@]2(O)O[C@](NC(=O)[C@H]3C=C4c5cccc6[nH]cc(c56)C[C@H]4N(C)C3)(C(C)C)C(=O)N12 . Value?
output: > 46 µM (inactive)

input: Same for C[N+]1(C)CCO[C@@](O)(c2ccc(-c3ccc([C@]4(O)C[N+](C)(C)CCO4)cc3)cc2)C1
output: > 46 µM (inactive)

input: Same for CC(C)[C@@]1(NC(=O)[C@@H]2C=C3c4cccc5[nH]cc(c45)C[C@H]3N(C)C2)O[C@@]2(O)[C@@H]3CCCN3C(=O)[C@H](Cc3ccccc3)N2C1=O
output: > 20.6 µM (inactive)

input: Same for O=c1[nH]c(=O)n(-c2cccc3ccccc23)c(O)c1C=NCCCn1ccnc1
output: > 20.6 µM (inactive)

input: Same for COc1ccc2c(c1OC)C(=O)OC2c1c(O)n(C2CCCCC2)c(=O)[nH]c1=O (stereo unspecified)
output: > 20.6 µM (inactive)

* * *

Reported max response by item:
# EXPERIMENT SUMMARY: qHTS assay for small molecule agonists of the antioxidant response element (ARE) signaling pathway measured by Nrf2-dependant transcriptional activity - cell viability counter screen (AID 720653); further: on the % scale 0 is the no-effect control and ±100 the full control effect
# CONDITIONS: ARE-bla HepG2 viability, CellTiter-Glo ATP luminescence, 16 h; stronger effect = lower value
Results filed as inconclusive are left out. Calls of active or inactive are those of the source. Calls come from the whole dose curve; as a rule, active = well fitted cell-killing curve with a large enough effect in the repeat runs; inconclusive = weak or mixed curves; inactive = flat fitted curve, though single readings scatter.

Take a look at these entries with their results.
# COMPOUND, max response
measured = [
    ("CCC(C)(C)c1cc(-n2nc3ccccc3n2)c(O)c(C(C)(C)CC)c1", "-12.9% (inactive)"),
    ("CC1(C)CON(Cc2ccccc2Cl)C1=O", "-9.67% (inactive)"),
    ("CNC(=O)O/N=C(\\SC)C(=O)N(C)C", "-17.7% (inactive)"),
    ("O=C(NC(=O)c1c(F)cccc1F)Nc1cc(Cl)c(OC(F)(F)C(F)F)c(Cl)c1", "-11.1% (inactive)"),
]

input: Endpoint output: max response of COc1ccc(C(O)(c2cncnc2)C2CC2)cc1 (stereo not given) . Value?
output: -13.4% (inactive)

input: Same for FC(F)(F)c1ccc(OCCCOc2c(Cl)cc(OCC=C(Cl)Cl)cc2Cl)nc1
output: -24.7% (inactive)

input: Same for CC(C)(C#N)N=NC(C)(C)C#N
output: -0.383% (inactive)

input: Same for Cn1c(-c2ccccc2)cc(-c2ccccc2)[n+]1C
output: -21.3% (inactive)

input: Same for CNC(=O)/C=C(\C)OP(=O)(OC)OC
output: -10% (inactive)

input: Same for CC(C)=CC1C(C(=O)OCc2coc(Cc3ccccc3)c2)C1(C)C (stereo not given)
output: -23.8% (inactive)

* * *

# EXPERIMENT SUMMARY: Cell Viability - LYMP2-009 (AID 968);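 further: cells exposed to compound for 24 h at 37 °C; nearly all actives have a fitted effect of over 55% in size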
# CONDITIONS: LYMP2-009 lymphoblastoid cell viability; series mostly up to 92.2 µM
Results filed as inconclusive are left out. Active and inactive are the calls of the source. The call rests on the fitted dose curve; in most records, active means well fitted cell-killing curve with a large enough effect; inconclusive means small, poorly fitted or top-dose-only effect; inactive means flat fitted curve, though single readings scatter.
Valid outcomes are listed here; reply with one: active, inactive

input: Hey, what did the test say about N#CSCSC#N ?
output: active

input: Same for CN(C)c1ccc(N=O)cc1
output: active

input: Same for O=C(CCl)c1ccccc1
output: active

input: Same for Oc1c(Br)c(Br)c(Br)c(Br)c1Br
output: inactive

* * *

# EXPERIMENT SUMMARY: qHTS assay for small molecule agonists of retinoid X receptor alpha signaling (AID 588544)
# CONDITIONS: HEK293T RXRa-UAS-bla, beta-lactamase reporter, 18 h; 530 nm emission
Records with an inconclusive call do not appear.
MEASURED ATTRIBUTE: max response (%)
I only need the number, in %, no unit after it.

# COMPOUND, max response / %
measured = [
    ("CNP(=O)(OC)Oc1ccc(C(C)(C)C)cc1Cl (stereo not given)", 10.3),
    ("O=[N+]([O-])c1ccc2ccc3cccc4ccc1c2c34", 19.4),
    ("Cc1cc(Cl)ccc1O[C@H](C)C(=O)O", -13.3),
]

Proceed to the following item.
input: Endpoint output: max response of COP(=S)(OC)Oc1ccc([N+](=O)[O-])c(C)c1 . Value?
output: -4.53

* * *

# MEASUREMENT TARGET: Ubiquitin carboxyl-terminal hydrolase 1 (Homo sapiens)
# EXPERIMENT SUMMARY: Inhibitors of USP1/UAF1: Pilot qHTS (AID 504865); further: nearly all actives have a fitted effect of over 35% in size
# CONDITIONS: purified USP1/UAF1, Ub-rhodamine cleavage fluorescence; series mostly up to 114 µM
Inconclusive results are not listed. The source made the active and inactive calls. Calls come from the whole dose curve; as a rule, active = well fitted inhibition curve with a large enough effect; inconclusive = small, poorly fitted or top-dose-only effect; inactive = flat fitted curve, though single readings scatter.
Valid outcomes are listed here; reply with one: active, inactive

# COMPOUND, CLASS
data = [
    ("CC(CO)NC(=O)C1C=C2c3cccc4[nH]cc(c34)C[C@H]2N(C)C1 (some centres undefined)", "inactive"),
    ("CC(CO)NC(=O)C1C=C2c3cccc4[nH]cc(c34)CC2N(C)C1 (centres undefined)", "inactive"),
    ("CN1[C@H]2CC(OC(=O)[C@H](CO)c3ccccc3)C[C@H]1[C@H]1O[C@H]12 (some centres undefined)", "inactive"),
]

input: Hey, what did the test say about c1cc2cc(c1)C[n+]1ccc(c3ccccc31)NCc1ccc(cc1)CNc1cc[n+](c3ccccc13)C2 ?
output: inactive

input: Same for CC(=O)OC1C2CCC3C1(CC(O)[C@@]1(O)[C@@H](CC(O)C1(C)C)[C@]3(C)O)C[C@@]2(C)O (some centres undefined)
output: inactive

input: Same for CC[C@]1(O)CC(O[C@@H]2CC(N(C)C)C(O)C(C)O2)c2c(cc3c(c2O)C(=O)c2c(O)cccc2C3=O)C1C(=O)OC (some centres undefined)
output: active

* * *

# Test system: N140
# EXPERIMENT SUMMARY: qHTS profiling for inhibitors of Plasmodium falciparum proliferation (AID 504749);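 further: 0% = DMSO vehicle and full inhibition = artemisinin control; nearly all actives have a fitted effect of over 60% in size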
# CONDITIONS: P. falciparum in erythrocytes, SYBR Green DNA, 72 h; series mostly up to 28.7 µM
Inconclusive results are not listed. Active and inactive are the calls of the source. Calls come from the whole dose curve; as a rule, active = well fitted inhibition curve with a large enough effect; inconclusive = small, poorly fitted or top-dose-only effect; inactive = flat fitted curve, though single readings scatter.

# COMPOUND, MEASUREMENT TARGET, outcome
data = [
    ("CN(C)[C@H]1C(=O)C(C(N)=O)=C(O)[C@]2(O)C(=O)C3=C(O)c4c(O)cccc4[C@@](C)(O)[C@H]3C[C@@H]12", "N140", "inactive"),
    ("CC(=O)Oc1ccc2c3c1OC1[C@@H](OC(C)=O)C=C[C@H]4[C@H](C2)N(C)CC[C@]314 (stereo partly drawn)", "N140", "inactive"),
    ("C=C1Nc2ccccc2C(=O)N1c1ccccc1C", "N140", "inactive"),
]

* * *

# MEASUREMENT TARGET: Glucocorticoid receptor (Homo sapiens)
# EXPERIMENT SUMMARY: qHTS assay for small molecule agonists of glucocorticoid receptor signaling (AID 588532);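 further: 100% = dexamethasone at 0.1 µM and 0% = DMSO only wells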
# CONDITIONS: HeLa MMTV-bla, beta-lactamase ratio, agonist, 18 h; stronger effect = higher value, percent of dexamethasone control, DMSO zero
Inconclusive results are not listed.
MEASURED ATTRIBUTE: activation (%)
I only need the number, in %, no unit after it.

Take a look at these entries with their results.
# COMPOUND, UNITS TEXT, activation
data = [
    ("CC1(C)C(C=C(Cl)Cl)[C@H]1C(=O)OCc1cccc(Oc2ccccc2)c1 (some centres not stated)", "%", 0.728),
    ("C#CCO", "%", 0.566),
    ("CCC[CH2][Sn]([Cl])([Cl])[CH2]CCC", "%", -12),
    ("[CH3][Sn]([Cl])([Cl])[Cl]", "%", -3.55),
]

input: Endpoint output: activation of Nc1cnn(-c2ccccc2)c(=O)c1Cl . Value?
output: -1.22

input: Same for CCC[CH2][Sn]([CH2]CCC)([O]C(C)=O)[O]C(C)=O
output: -12.8

input: Same for CCNc1nc(Cl)nc(NC(C)(C)C#N)n1
output: -6.13

input: Same for CC(C)=CC1C(C(=O)OCc2coc(Cc3ccccc3)c2)C1(C)C (configuration not stated)
output: 2.93

input: Same for CCOP(=S)(OCC)SCC(=O)NC(C)C
output: 3

input: Same for CCOP(=O)(OCC)Oc1cc(C)nc(C(C)C)n1
output: 20.3

input: Same for COc1ccc(C(O)(c2cncnc2)C2CC2)cc1 (configuration not stated)
output: -6.63
